# target system: Organic cation transporter 2 (OCT2) (Homo sapiens, UniProt O15244)
# Construct: gene SLC22A2
# Sequence (O15244 whole entry): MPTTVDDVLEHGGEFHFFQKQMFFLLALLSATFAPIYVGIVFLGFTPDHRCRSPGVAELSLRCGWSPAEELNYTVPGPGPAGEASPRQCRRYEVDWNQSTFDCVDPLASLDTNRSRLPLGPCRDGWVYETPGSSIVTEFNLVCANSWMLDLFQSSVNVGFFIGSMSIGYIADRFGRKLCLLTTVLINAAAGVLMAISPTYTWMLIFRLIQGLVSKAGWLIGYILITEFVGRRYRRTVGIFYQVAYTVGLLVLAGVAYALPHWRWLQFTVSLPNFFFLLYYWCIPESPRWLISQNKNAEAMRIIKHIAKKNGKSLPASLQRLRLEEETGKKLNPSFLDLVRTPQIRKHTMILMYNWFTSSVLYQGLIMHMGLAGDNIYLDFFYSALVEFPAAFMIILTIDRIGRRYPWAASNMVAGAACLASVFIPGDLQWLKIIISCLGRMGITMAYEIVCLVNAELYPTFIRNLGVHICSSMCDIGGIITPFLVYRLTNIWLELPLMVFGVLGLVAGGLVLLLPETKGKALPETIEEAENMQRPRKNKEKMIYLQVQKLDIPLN
# method: inhibition of [3H]MPP+ uptake and direct [3H]tryptophan uptake in OCT2-expressing oocytes
# Type: cell-based
pIC50: −log10 of the molar value.

structure smiles: N[C@@H](Cc1c[nH]c2ccccc12)C(=O)O
pIC50: 2.21
